# targetUnderTest: human ether-à-go-go-related gene (hERG) potassium channel (human, UniProt Q12809);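 further: peak tail current of the secondary pulse compared with the same well before compound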
# Sequence (Q12809 whole entry, looked up): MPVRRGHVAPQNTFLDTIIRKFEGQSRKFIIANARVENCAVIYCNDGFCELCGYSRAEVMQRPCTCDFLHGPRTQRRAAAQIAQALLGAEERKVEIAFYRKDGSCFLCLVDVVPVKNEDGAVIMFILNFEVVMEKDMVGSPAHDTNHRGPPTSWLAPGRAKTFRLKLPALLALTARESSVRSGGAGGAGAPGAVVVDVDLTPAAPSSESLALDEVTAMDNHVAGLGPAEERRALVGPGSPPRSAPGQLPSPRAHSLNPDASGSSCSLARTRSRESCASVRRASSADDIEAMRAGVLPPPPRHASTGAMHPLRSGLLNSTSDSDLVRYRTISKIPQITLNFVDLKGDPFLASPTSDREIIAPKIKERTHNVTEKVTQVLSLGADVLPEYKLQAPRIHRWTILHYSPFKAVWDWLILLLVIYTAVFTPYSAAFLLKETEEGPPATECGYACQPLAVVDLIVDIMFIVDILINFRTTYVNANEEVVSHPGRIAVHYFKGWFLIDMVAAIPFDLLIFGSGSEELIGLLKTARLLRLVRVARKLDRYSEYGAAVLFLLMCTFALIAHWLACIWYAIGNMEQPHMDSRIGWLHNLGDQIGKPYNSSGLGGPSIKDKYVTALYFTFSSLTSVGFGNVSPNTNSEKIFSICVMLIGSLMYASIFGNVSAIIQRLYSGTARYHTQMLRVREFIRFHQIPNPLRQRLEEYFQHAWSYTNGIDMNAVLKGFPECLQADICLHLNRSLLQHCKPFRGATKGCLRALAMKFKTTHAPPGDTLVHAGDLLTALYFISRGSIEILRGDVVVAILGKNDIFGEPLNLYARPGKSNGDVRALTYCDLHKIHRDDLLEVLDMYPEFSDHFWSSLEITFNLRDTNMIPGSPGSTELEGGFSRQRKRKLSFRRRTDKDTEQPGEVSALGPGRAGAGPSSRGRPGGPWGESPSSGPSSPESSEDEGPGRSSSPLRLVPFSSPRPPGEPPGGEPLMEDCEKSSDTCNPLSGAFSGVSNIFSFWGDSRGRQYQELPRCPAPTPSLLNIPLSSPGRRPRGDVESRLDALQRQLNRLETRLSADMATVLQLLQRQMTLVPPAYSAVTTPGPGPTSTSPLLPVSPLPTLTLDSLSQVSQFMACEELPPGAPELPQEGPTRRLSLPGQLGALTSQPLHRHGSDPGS
# assayNotes: primary screen, population patch clamp on CHO cells stably expressing hERG; higher = less effect of the substance
In all, about 310,000 compounds went through this assay and about 14,000 (4.5%) showed an effect of 50% or more. Effects have a minus sign here. The full list was thinned out, with strong results kept by preference.
readoutType: hERG current change (%, negative = inhibition) at 10uM (%)
# number only, unit % dropped from output

Tell me the measured hERG current change (%, negative = inhibition) at 10uM of O=C(Nc1nccs1)C1CCN(S(=O)(=O)c2cccs2)CC1 , please.
-24.1

Returns the measured hERG current change (%, negative = inhibition) at 10uM for the input compound. Input: CNC(=O)c1ccsc1NC(=O)C1CCN(S(=O)(=O)c2cccs2)CC1
-55.1

I am curious: what hERG current change (%, negative = inhibition) at 10uM value has been reported for O=C(O)Cc1sc(Nc2ccc(F)cc2)nc1-c1cccs1 ?
15.3

* * *

# targetUnderTest: human ether-à-go-go-related gene (hERG) potassium channel (human);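 further: peak tail current of the secondary pulse compared with the same well before compound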
# assayNotes: primary screen, population patch clamp on CHO cells stably expressing hERG; higher = less effect of the substance
Out of some 310,000 compounds screened, about 14,000 (4.5%) showed an effect of 50% or more. The effect is printed as a negative number. Shown is part of a subset that was picked to be rich in strong results.
readoutType: hERG current change (%, negative = inhibition) at 10uM (%)
Quick reminder: number only, in %, skip the unit.

>>> value("CC(=O)Nc1ccc(S(=O)(=O)N2CCC(C(=O)NCc3ccco3)CC2)cc1")
0.324

Request the reported hERG current change (%, negative = inhibition) at 10uM associated with COC(=O)c1c(NC(=O)c2cccnc2Cl)sc(C(=O)N(C)C)c1C
-6.44

Return reported hERG current change (%, negative = inhibition) at 10uM; argument: COc1ccccc1CSc1ncc(-c2ccc([N+](=O)[O-])cc2)[nH]1
-13.8

Any idea what hERG current change (%, negative = inhibition) at 10uM was measured for N#Cc1nc(-c2ccc(OCc3ccccc3)cc2)oc1NCc1ccco1 ?
7.75

What value of hERG current change (%, negative = inhibition) at 10uM has been recorded for this entry: COc1ccc(NC(=O)CN2C(=O)C(C)Oc3ccccc32)c(OC)c1 (centres unmarked)
-10.4

Which measured hERG current change (%, negative = inhibition) at 10uM value corresponds to Cc1occc1C(=O)N1CCCC(N2CCN(c3cccc(C(F)(F)F)c3)CC2)C1 (centres unmarked) ?
-38.9

Item under review: Cc1ccc(NC(=O)COC(=O)c2ccc(Cl)nc2)cc1S(=O)(=O)N1CCCCC1 . Reported hERG current change (%, negative = inhibition) at 10uM?
15.2

Form field: reported hERG current change (%, negative = inhibition) at 10uM of Cc1nnsc1C(=O)N1CCCC(N2CCN(c3cccc(C(F)(F)F)c3)CC2)C1 (centres unmarked)
-26.8

Need hERG current change (%, negative = inhibition) at 10uM, item O=C(O)CN(c1ccccn1)S(=O)(=O)c1ccccc1
-8.38

Reported hERG current change (%, negative = inhibition) at 10uM, compound Cc1cc(C(=O)N2CCCC(N3CCN(c4cccc(C(F)(F)F)c4)CC3)C2)n[nH]1 (centres unmarked) : ____
-53.2

Which hERG current change (%, negative = inhibition) at 10uM reading was recorded for the compound CSc1ncc(OCc2ccccc2)c(=O)[nH]1 ?
8.39

Dear colleague, I am looking for the recorded hERG current change (%, negative = inhibition) at 10uM of the following compound: COc1ccc(C2=NS(=O)(=O)N(C)C(C(=O)N3CCOCC3)=C2)cc1OC
-2.16

Returns the measured hERG current change (%, negative = inhibition) at 10uM for the input compound. Input: Cc1ccc(N2CCN(c3ccc(C)cc3)C2c2cccnc2)cc1
17.6

Value lookup for hERG current change (%, negative = inhibition) at 10uM; key = COC(=O)CCC(=O)N1CCCC(N2CCN(c3ccc(OC)cc3)CC2)C1 (centres unmarked)
-1.47

Endpoint output: hERG current change (%, negative = inhibition) at 10uM of COc1ccc(C)cc1NC(=O)C1CCCN(S(=O)(=O)c2ccc(-n3cnnn3)cc2)C1 (centres unmarked) . Value?
-69.8

Could you share which hERG current change (%, negative = inhibition) at 10uM value was measured for O=C(c1ccsc1)N1CCCC(N2CCN(c3cccc(Cl)c3)CC2)C1 (centres unmarked) ?
-47.1

Looking for the measured hERG current change (%, negative = inhibition) at 10uM of C1=CCC(CN2CCNCC2)CC1.O=C(O)C(F)(F)F (centres unmarked) , can you help?
9.96

Would you mind telling me what hERG current change (%, negative = inhibition) at 10uM value was observed for O=C(c1ccsc1)N1CCCC(N2CCN(c3cccc(C(F)(F)F)c3)CC2)C1 (centres unmarked) ?
-64.2

Look at this compound and give its reported hERG current change (%, negative = inhibition) at 10uM. O=C(c1ccoc1)N1CCCC(N2CCN(c3cccc(Cl)c3)CC2)C1 (centres unmarked)
-41.3

I would be grateful if you could share the reported hERG current change (%, negative = inhibition) at 10uM for O=C(c1cc[n+]([O-])cc1)N1CCCC(N2CCN(c3cccc(C(F)(F)F)c3)CC2)C1 (centres unmarked) .
-6.27
